target_system: T1, LGP2 RD K605E (human, UniProt Q96C10 537-678, K605E)
T1 sequence: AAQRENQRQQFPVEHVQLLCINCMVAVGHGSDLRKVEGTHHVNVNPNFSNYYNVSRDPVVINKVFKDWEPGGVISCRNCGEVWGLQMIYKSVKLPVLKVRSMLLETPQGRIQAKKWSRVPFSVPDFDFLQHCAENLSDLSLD
protocol_details: fluorescence anisotropy
metric: Kd (nM)
Provide only the numeric value, understood in nM.

Request: Which Kd is reported for this binder? 25 bp dsRNA (dsRNA) RNA 1: GCUUGUCGGGAGCGCCACCCUCUGC RNA 2: GCAGAGGGUGGCGCUCCCGACAAGC
Response: 140
